# target: ATP-dependent Clp protease proteolytic subunit (Staphylococcus aureus (strain NCTC 8325), UniProt Q2G036)
# Sequence (Q2G036 whole entry): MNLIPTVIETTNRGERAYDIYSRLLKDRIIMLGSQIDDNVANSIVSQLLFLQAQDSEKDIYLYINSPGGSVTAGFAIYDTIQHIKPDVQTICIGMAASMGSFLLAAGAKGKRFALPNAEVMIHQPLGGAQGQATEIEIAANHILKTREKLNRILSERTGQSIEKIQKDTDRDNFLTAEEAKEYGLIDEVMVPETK
# procedure.text: Inhibition of ClpP in methicillin-resistant Staphylococcus aureus ATCC 33591 assessed as reduction in bacteria-induced hemolysis of sheep erythrocytes by measuring hemoglobin release incubated for 15 mins
The entries below come with measured EC50 values attached.
Use nM as the unit, but write only the number.

Sample records with EC50:
CC(C)C[C@H](NC(=O)[C@H](Cc1ccccc1)NC(=O)c1cnccn1)B(O)O	23500
CC(C)C[C@H](NC(=O)[C@H](Cc1c[nH]c2ccccc12)NC(=O)c1cc(Cl)ccc1Cl)B(O)O	1400

// next entry
stdin: Look up EC50: CC(C)Cc1ccc(C(C)C(=O)N[C@@H](Cc2c[nH]c3ccccc23)C(=O)N[C@@H](CC(C)C)B(O)O)cc1 (stereo partly drawn)
stdout: 2600

----------
# procedure.text: Cytotoxicity in human HepG2 cells assessed as reduction in cell viability incubated for 24 hrs by MTT assay
# Format: cell-based
metric.name: GI50 at 24 h (µM)
Use µM as the unit, but write only the number.

Sample records with GI50 at 24 h:
CC(C)Cc1ccc(C(C)C(=O)N[C@@H](Cc2c[nH]c3ccccc23)C(=O)N[C@@H](CC(C)C)B(O)O)cc1 (some centres not stated)	54.8
CC(C)C[C@H](NC(=O)[C@H](Cc1c[nH]c2ccccc12)NC(=O)c1cc(Cl)ccc1Cl)B(O)O	83.4
CC(C)C[C@H](NC(=O)[C@H](Cc1ccccc1)NC(=O)c1cnccn1)B(O)O [BORTEZOMIB]	101

stdin: Look up GI50 at 24 h: CC(C)Cc1ccc(C(C)C(=O)N[C@@H](Cc2ccc(O)cc2)C(=O)N[C@@H](CC(C)C)B(O)O)cc1 (some centres not stated)
stdout: 117

----------
# procedure.text: Cytotoxicity in human HeLa cells assessed as reduction in cell viability incubated for 24 hrs by MTT assay
# Format: cell-based
Label key: 1 means GI50 at 24 h under 100 µM; 0 means GI50 at 24 h of 100 µM or more.

The examples below pair each entry with its known result.
CC(C)C[C@H](NC(=O)CNC(=O)c1cc(Cl)ccc1Cl)B(O)O	0
CC(C)Cc1ccc(C(C)C(=O)N[C@@H](Cc2ccc(O)cc2)C(=O)N[C@@H](CC(C)C)B(O)O)cc1 (some centres not stated)	1
COc1ccc(C(=O)N[C@@H](Cc2ccccc2)C(=O)N[C@@H](CC(C)C)B(O)O)c(C)c1	0
CC(C)C[C@H](NC(=O)[C@H](Cc1c[nH]c2ccccc12)NC(=O)c1cc(Cl)ccc1Cl)B(O)O	0
CC(C)Cc1ccc(C(C)C(=O)N[C@@H](Cc2c[nH]c3ccccc23)C(=O)N[C@@H](CC(C)C)B(O)O)cc1 (some centres not stated)	1

stdin: Determine whether this molecule shows GI50 at 24 h lower than 100 µM (ties excluded): `CC(C)C[C@H](NC(=O)[C@H](Cc1ccccc1)NC(=O)c1cnccn1)B(O)O`
stdout: 0

stdin: Another molecule to look at: `COc1ccc(C(=O)N[C@@H](Cc2ccccc2)C(=O)N[C@@H](CC(C)C)B(O)O)cc1`
stdout: 0

----------
# target: ATP-dependent Clp protease proteolytic subunit (Escherichia coli (strain K12), UniProt P0A6G7)
# Sequence (P0A6G7 whole entry): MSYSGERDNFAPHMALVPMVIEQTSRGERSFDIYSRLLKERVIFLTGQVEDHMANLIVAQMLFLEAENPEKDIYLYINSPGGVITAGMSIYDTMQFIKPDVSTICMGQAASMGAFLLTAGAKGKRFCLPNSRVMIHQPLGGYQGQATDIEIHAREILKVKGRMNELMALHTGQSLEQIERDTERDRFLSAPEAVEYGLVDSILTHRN
# procedure.text: Inhibition of Escherichia coli ClpP
Where a SMILES comes first, the peptide text is derived from it. The star is where a group is joined. Cbz = O=C(OCc1ccccc1)*; CH2Cl = ClC*
metric.name: pIC50
Keep it numeric: pIC50 is minus log10 of the concentration in mol/L.

stdin: Look up pIC50: CC(C)C[C@H](NC(=O)OCc1ccccc1)C(=O)N[C@@H](Cc1ccc(O)cc1)C(=O)CCl (Cbz-Leu-Tyr-CH2Cl)
stdout: 4.84
